solubility Myritol 318 for assorted molecules
Assay: Determination of the solubility in cosmetic solvents
Format: physicochemical
Settings: Capric/Caprylic Triglyceride; saturated solution stirred 7 days at room temperature; concentration by HPLC
METRIC: solubility Myritol 318

>>> result("CCCCC(CC)C(=O)OCc1cc(C)cc(-n2nc3ccccc3n2)c1O (centres unmarked)")
"24%"
>>> result("Cc1cc(COCCC(C)C)c(O)c(-n2nc3ccc(Cl)cc3n2)c1")
"12%"
>>> result("Cc1cc(COCCC(C)C)c(O)c(-n2nc3ccccc3n2)c1")
"36%"
>>> result("Cc1cc(COC(=O)CC(C)C)c(O)c(-n2nc3ccccc3n2)c1")
"6%"
>>> result("Cc1cc(COCc2cc(C)cc(-n3nc4ccccc4n3)c2O)c(O)c(-n2nc3ccccc3n2)c1")
"0.01%"
